Entry source: ChEMBL document CHEMBL3507680

# cytotoxicity at 70.5 h per record follows
- procedureText: Human HepG2 cell viability assay in 384 well format
- Format: toxicity, cell-based
- Parameters: dose 125 nL, time 70.5 hour; concentration not given beside the values
- measurementContext: HepG2 cells, read-out: Inhibition
Your answer is read as %, so omit the unit and give the number.

// solved cases for cytotoxicity at 70.5 h follow
Cc1cncc(CN2CC[C@@](O)(CNC(=O)c3c[nH]cn3)[C@H](O)C2)c1; -6.5
CS(=O)(=O)NCC1CCCCN1C(=O)c1ccsc1 (configuration not stated); -2.66
O=C(Cn1ccc2sccc2c1=O)NCc1ccc2c(c1)OCO2; -6.54

What does the record list as cytotoxicity at 70.5 h for CCn1ccnc1CN1CCN(c2ccc3nnc(C)n3n2)CC1 ?
-8.35

Endpoint output: cytotoxicity at 70.5 h of NCCC1CN(c2nc(-c3ccccc3)nc3c2CCNC3)CCO1 (configuration not stated) . Value?
2.96

Endpoint output: cytotoxicity at 70.5 h of Cc1occc1C(=O)N1CCn2cnc(COCC3CC3)c2C1 . Value?
-0.838

# lookup: cytotoxicity at 70.5 h of Cc1ccc(Oc2ncccc2CNC2CCSCC2)cn1
-8.64

Please give the measured cytotoxicity at 70.5 h for this compound: CN1CCC[C@H]1c1nc(-c2cncnc2N)no1
-7.81

Name the recorded cytotoxicity at 70.5 h for O=C(Nc1cccnc1-n1cncn1)N(C1CCCC1)C1CC1 .
-7.6

Tell me the measured cytotoxicity at 70.5 h of CCCN(CCO)S(=O)(=O)c1ccc2[nH]c(=O)[nH]c2c1 , please.
1.55

Look at this compound and give its reported cytotoxicity at 70.5 h. c1ccc(Cc2noc(CN(Cc3cccs3)CC3CCCO3)n2)cc1 (configuration not stated)
-4.54

What value of cytotoxicity at 70.5 h has been reported for the following compound? CCS(=O)(=O)CCNC(=O)C1(c2cccc(Cl)c2)CC1
15.5
